Origin of the recorded values: patent US7176216B2

Test system: CRF-induced cAMP production in AtT-20 cells
Experiment: cAMP production inhibition experiment using AtT-20 cells
Format: cell-based
Conditions: Mus musculus, AtT20, CRF 30 nM
pIC50: −log10 of the molar value.
Quantity Name: pIC50

As a guide, the following entries are already answered.
CCCN(CC1CCOCC1)c1c(CC)nn2c(-c3c(OC)cc(COCC)cc3OC)cccc12 [Example 23]
8.22
CCOCc1cc(OC)c(-c2cccc3c(N(CC4CCOCC4)CC4CC4)c(CC)nn23)c(OC)c1 [Example 3]
8.29
COCc1cc(OC)c(-c2cccc3c(N(CC4CCOCC4)CC4CC4)c(SC)nn23)c(OC)c1 [Example 59]
8.46
CCc1nn2c(-c3c(OC)cc(COC)cc3OC)cccc2c1N(CC1CCOCC1)CC1CC1 [Example 1]
8.40
COCc1cc(OC)c(-c2cccc3c(N(CC4CCOCC4)CC4CC4)c(OC)nn23)c(OC)c1 [Example 47]
7.30

I: COCc1cc(OC)c(-c2cccc3c(N(CC4CC4)CC4CCOC4)c(SC)nn23)c(OC)c1 (stereo not shown) [Example 60]
II: CCCN(CC1CCOCC1)c1c(CC)nn2c(-c3c(OC)cc(COC)cc3OC)cccc12 [Example 13]
Compare I and II by numeric pIC50 and name the larger one. Kindly give the label for the entry you pick. I
(I: 8.46, II: 7.96)

---

Biological target: human CRFR1 (Homo sapiens, UniProt P34998)
Sequence (P34998 24-415): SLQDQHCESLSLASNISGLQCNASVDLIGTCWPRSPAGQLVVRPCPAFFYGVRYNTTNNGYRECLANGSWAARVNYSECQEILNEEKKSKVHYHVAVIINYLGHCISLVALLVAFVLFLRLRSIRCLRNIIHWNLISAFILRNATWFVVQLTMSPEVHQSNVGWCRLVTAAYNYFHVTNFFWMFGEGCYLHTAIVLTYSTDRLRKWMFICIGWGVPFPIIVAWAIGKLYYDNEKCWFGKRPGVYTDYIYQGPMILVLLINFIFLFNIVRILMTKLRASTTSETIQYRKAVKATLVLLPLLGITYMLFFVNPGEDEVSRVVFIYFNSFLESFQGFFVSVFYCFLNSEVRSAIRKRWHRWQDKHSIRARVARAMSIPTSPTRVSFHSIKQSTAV
Quantity Name: pIC50
In textbook form, pIC50 equals minus log to base ten of the concentration in mol/L.

Write pIC50 of CCCN(CC1CCOCC1)c1c(CC)nn2c(-c3c(OC)cc(COCC)cc3OC)cccc12 [Example 23] ; system used: human CRFR1 (Homo sapiens, UniProt P34998) 7.30
